The following sequences are listed with their measured PBM E-score values.
- system: Upc2 (UniProt Q12151)
- Sequence: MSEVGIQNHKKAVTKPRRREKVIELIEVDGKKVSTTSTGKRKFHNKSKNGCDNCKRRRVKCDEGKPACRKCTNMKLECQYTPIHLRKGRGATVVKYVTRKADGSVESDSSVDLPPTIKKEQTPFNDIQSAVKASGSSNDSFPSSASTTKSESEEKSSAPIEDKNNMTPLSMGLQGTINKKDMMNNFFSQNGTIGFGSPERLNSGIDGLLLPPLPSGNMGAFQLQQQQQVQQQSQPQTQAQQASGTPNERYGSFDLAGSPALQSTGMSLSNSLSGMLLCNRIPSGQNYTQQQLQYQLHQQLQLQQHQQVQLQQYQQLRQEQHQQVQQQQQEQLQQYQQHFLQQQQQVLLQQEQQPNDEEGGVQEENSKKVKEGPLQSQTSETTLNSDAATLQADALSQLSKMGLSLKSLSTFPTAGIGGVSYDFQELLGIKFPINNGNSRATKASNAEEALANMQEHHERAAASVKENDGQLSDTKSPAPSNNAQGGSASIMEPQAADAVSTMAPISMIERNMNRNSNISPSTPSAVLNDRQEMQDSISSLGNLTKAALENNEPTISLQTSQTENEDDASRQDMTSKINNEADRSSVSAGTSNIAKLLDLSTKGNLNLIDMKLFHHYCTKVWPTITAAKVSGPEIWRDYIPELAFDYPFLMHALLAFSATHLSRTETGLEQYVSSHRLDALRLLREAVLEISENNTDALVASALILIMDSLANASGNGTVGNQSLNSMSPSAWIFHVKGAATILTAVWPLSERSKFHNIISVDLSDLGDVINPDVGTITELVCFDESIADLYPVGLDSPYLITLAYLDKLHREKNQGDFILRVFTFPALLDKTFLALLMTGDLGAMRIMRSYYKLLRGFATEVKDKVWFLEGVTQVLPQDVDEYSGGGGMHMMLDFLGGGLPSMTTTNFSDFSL
- assay-comment: PBM E-score (8-mer binding enrichment) (E-score (-0.5 to 0.5)); higher = stronger / more preferred TF binding
- details: protein concentration: 200 nM; construct: GST-full length
In all, about 33,000 sequences were measured (“E-score (-0.5 to 0.5)”: median about -0.043, highest 2% from about 0.37 on). For the sample, the highest values were picked, then their nearest neighbours and some sequences at random.
In your answer, state the number alone without any accompanying words.

sequence: GCTCTTAA
metric: PBM E-score
readout-number: 0.108
--
sequence: CCTCGTTC
metric: PBM E-score
readout-number: 0.46
--
sequence: AGTAACCA
metric: PBM E-score
readout-number: -0.164
--
sequence: CCGGTACA
metric: PBM E-score
readout-number: 0.106

Complete the entry with PBM E-score for "CCTTGCCC" -0.056

Give the value of PBM E-score reported for the following: "CTTGTATC" -0.0734
